These measurements were taken from patent US20100166765A1.

I'd appreciate it if you could supply melting point values for the items below.

Prompt: What measured melting point goes with C#CCOc1ccc2nc(C(=O)c3ccc(Cl)cc3)nc(-c3ccc(C(C)C)cc3)c2c1 ?
Completion: 108 to 110 °C

Prompt: Quick one: C#CCOc1ccc2nc(C(=O)c3ccc(C(=O)OCC)cc3)nc(-c3ccc(C(C)C)cc3)c2c1
Completion: 132 to 134 °C

Prompt: Next up: C#CCOc1ccc2nc(C(=O)c3ccc(N(C)C)cc3)nc(-c3ccc(C(C)C)cc3)c2c1
Completion: 148 to 151 °C

Prompt: Now try C#CCOc1ccc2nc(C(=O)c3ccc(C(C)C)cc3)nc(-c3ccc(C(C)C)cc3)c2c1 .
Completion: 132 to 134 °C

Prompt: Another: C#CCOc1ccc2nc(C(=O)c3ccc(C(=O)OC)cc3)nc(-c3ccc(C(C)C)cc3)c2c1
Completion: 108 to 110 °C

Prompt: Repeat with C#CCOc1ccc2nc(C(=O)c3cccc(F)c3)nc(-c3ccc(C(C)C)cc3)c2c1
Completion: 118 to 120 °C

Prompt: What do you get for C#CCOc1ccc2nc(C(=O)c3ccoc3)nc(-c3ccc(C(C)C)cc3)c2c1 ?
Completion: 133 °C

Prompt: Also C#CCOc1ccc2nc(C(=O)c3cccc(F)c3)nc(-c3ccc(C(C)(C)C)cc3)c2c1 , if possible.
Completion: 156 to 158 °C
